The measurements presented in this section are drawn from ChEMBL document CHEMBL1201861.

- Test system: H4
- assay remarks: cells
- Format: functional, cell-based, Homo sapiens
- condition details: h4
- Description: SANGER: Inhibition of human H4 cell growth in a cell viability assay.
Catalogue of IC50 readings, one per entry.

| sequence | measure unit | IC50 |
| --- | --- | --- |
| BLEOMYCIN | nM | 321 |
| CISPLATIN | nM | 4710 |

----------
- System: NCI-H1417;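 also: human NCI-H1417 cells, growth inhibition determined with a cell viability readout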
- assay remarks: cells
- Type: functional, cell-based, Homo sapiens
- condition details: nci-h1417
- Description: SANGER: Inhibition of human NCI-H1417 cell growth in a cell viability assay.

| sequence | IC50 (µM) |
| --- | --- |
| BLEOMYCIN | 30.4 |

----------
Entries and their IC50
- System: MHH-ES-1;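 also: cell growth inhibition measured by a cell viability assay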
- assay remarks: cells
- Assay type: functional, cell-based, Homo sapiens
- condition details: Homo sapiens, MHH-ES-1
- Description: SANGER: Inhibition of human MHH-ES-1 cell growth in a cell viability assay.

| compound smiles | IC50 |
| --- | --- |
| Oc1ccc2ccccc2c1SSc1c(O)ccc2ccccc12 | > 32 µM |
| CC(C)c1ccccc1Cc1cc(C(=O)Nc2ccc(S(=O)(=O)c3ccccc3C(C)(C)C)cc2)c(O)c(O)c1O | 0.5 µM |
| Nc1ccn([C@@H]2O[C@H](CO)[C@@H](O)C2(F)F)c(=O)n1 | < 0.004 µM |
| CN(C)C(=N)NC(=N)N | > 20000 µM |

----------
- System: EW-3;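 also: cell viability assay read-out, IC50 reflects inhibition of growth of the EW-3 cells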
- assay remarks: cells
- Format: functional, cell-based, Homo sapiens
- condition details: ew-3
- Description: SANGER: Inhibition of human EW-3 cell growth in a cell viability assay.

| sequence | IC50 |
| --- | --- |
| CISPLATIN | 1600 nM |

----------
- Test system: SAS;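 also: growth inhibition of SAS cells, read out with a cell viability assay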
- assay remarks: cells
- Format: functional, cell-based, Homo sapiens
- condition details: Homo sapiens, SAS
- Description: SANGER: Inhibition of human SAS cell growth in a cell viability assay.
pIC50: −log10 of the molar value.
Below, each entry is listed with its recorded pIC50.
readout name: pIC50

| compound | test system | experimental result |
| --- | --- | --- |
| CO[C@H]1C[C@@H]2CC[C@@H](C)[C@@](O)(O2)C(=O)C(=O)N2CCCC[C@H]2C(=O)O[C@H]([C@H](C)C[C@@H]2CC[C@@H](OC(=O)C(C)(CO)CO)[C@H](OC)C2)CC(=O)[C@H](C)/C=C(\C)[C@@H](O)[C@@H](OC)C(=O)[C@H](C)C[C@H](C)/C=C/C=C/C=C/1C [TEMSIROLIMUS] | SAS | < 6.70 |
| COc1cccc2c1C(=O)c1c(O)c3c(c(O)c1C2=O)C[C@@](O)(C(=O)CO)C[C@@H]3O[C@H]1C[C@H](N)[C@H](O)[C@H](C)O1 [DOXORUBICIN] | SAS | 6.94 |
| Cn1cnc2c(F)c(Nc3ccc(Br)cc3Cl)c(C(=O)NOCCO)cc21 [SELUMETINIB] | SAS | < 5.40 |

----------
- Test system: Mo
- assay remarks: cells
- Type: functional, cell-based, Homo sapiens
- condition details: Homo sapiens, Mo
- Description: SANGER: Inhibition of human Mo-T cell growth in a cell viability assay.
Measured IC50 by item
readout name: IC50

| molecule | experimental result |
| --- | --- |
| OCCCNc1cc(-c2ccnc(Nc3cccc(Cl)c3)n2)ccn1 | > 0.256 µM |
| CN(C)C(=N)NC(=N)N [METFORMIN] | > 20000 µM |
| Nc1cccc2c1CN(C1CCC(=O)NC1=O)C2=O (stereo unspecified) [LENALIDOMIDE] | > 5 µM |
| N#Cc1c(O)c2c(-c3ccc(-c4ccccc4O)cc3)csc2[nH]c1=O | > 1.02 µM |
| COc1cccc2c1C(=O)c1c(O)c3c(c(O)c1C2=O)C[C@@](O)(C(=O)CO)C[C@@H]3O[C@H]1C[C@H](N)[C@H](O)[C@H](C)O1 [DOXORUBICIN] | 0.805 µM |
| CC(C)CCN1c2nc(Nc3cc(F)c(O)c(F)c3)ncc2N(C)C(=O)C1C (stereo unspecified) | > 5 µM |

----------
- Test system: REH;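 also: growth inhibition of REH cells determined with a cell viability read-out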
- assay remarks: cells
- Type: functional, cell-based, Homo sapiens
- condition details: Homo sapiens, REH
- Description: SANGER: Inhibition of human REH cell growth in a cell viability assay.
pIC50: −log10 of the molar value.
Each record here notes measured pIC50.
readout name: pIC50

| compound | test system | experimental result |
| --- | --- | --- |
| O=C(O)c1ccc(-c2c[nH]c3ncc(-c4ccccc4)cc23)cc1C1CCCC1 [GSK-650394] | REH | < 4.80 |
| CC(=O)O[C@H]1C(=O)[C@@]2(C)[C@H]([C@H](OC(=O)c3ccccc3)[C@]3(O)C[C@H](OC(=O)[C@H](O)[C@@H](NC(=O)c4ccccc4)c4ccccc4)C(C)=C1C3(C)C)[C@]1(OC(C)=O)CO[C@@H]1C[C@@H]2O [PACLITAXEL] | REH | < 6.99 |
| Oc1ccc2ccccc2c1SSc1c(O)ccc2ccccc12 | REH | 5.47 |
| Cc1ccc(-c2c(C(=O)CCl)n(CCCO)c3ncnc(N)c23)cc1 | REH | < 5.40 |
| COc1cccc2c1C(=O)c1c(O)c3c(c(O)c1C2=O)C[C@@](O)(C(=O)CO)C[C@@H]3O[C@H]1C[C@H](N)[C@H](O)[C@H](C)O1 [DOXORUBICIN] | REH | 8.09 |
| COc1cc(-c2nn([C@H]3CC[C@H](N4CCN(C(C)=O)CC4)CC3)c3ncnc(N)c23)ccc1NC(=O)c1cc2ccccc2n1C | REH | < 5.29 |
| C=C(c1ccc(C(=O)O)cc1)c1cc2c(cc1C)C(C)(C)CCC2(C)C [BEXAROTENE] | REH | < 5.10 |
| C#Cc1cccc(Nc2ncnc3cc(OCCOC)c(OCCOC)cc23)c1 [ERLOTINIB] | REH | < 5.70 |
| COc1cc2ncn(-c3cc(OCc4ccccc4S(C)(=O)=O)c(C#N)s3)c2cc1OC [GSK-319347A] | REH | < 5.30 |

----------
- System: PLC-PRF-5;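 also: growth inhibition of human PLC-PRF-5 cells, read out with a viability assay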
- assay remarks: cells
- Format: functional, cell-based, Homo sapiens
- condition details: plc-prf-5
- Description: SANGER: Inhibition of human PLC-PRF-5 cell growth in a cell viability assay.

| sequence | IC50 |
| --- | --- |
| BLEOMYCIN | 281 µM |

----------
- Tested on: DJM-1;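 also: growth inhibition of human DJM-1 cells, read out by a cell viability assay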
- assay remarks: cells
- Assay type: functional, cell-based, Homo sapiens
- condition details: djm-1
- Description: SANGER: Inhibition of human DJM-1 cell growth in a cell viability assay.

| sequence | IC50 (µM) |
| --- | --- |
| CISPLATIN | 6.36 |

----------
- System: MRK-nu-1;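 also: cell viability assay measuring growth suppression of human MRK-nu-1 cells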
- assay remarks: cells
- Type: functional, cell-based, Homo sapiens
- condition details: Homo sapiens, MRK-nu-1
- Description: SANGER: Inhibition of human MRK-nu-1 cell growth in a cell viability assay.

| compound smiles | measure unit | relation symbol | IC50 |
| --- | --- | --- | --- |
| OCCCNc1cc(-c2ccnc(Nc3cccc(Cl)c3)n2)ccn1 | nM | = | 37.3 |
| C=C(c1ccc(C(=O)O)cc1)c1cc2c(cc1C)C(C)(C)CCC2(C)C | nM | > | 8000 |
| CC[C@H](CO)Nc1nc(NCc2ccccc2)c2ncn(C(C)C)c2n1 | nM | = | 7130 |
| Cc1cc([N+](=O)[O-])ccc1NS(=O)(=O)c1cc(Cl)ccc1Cl | nM | = | 2730 |

----------
- Tested on: MKN-7
- assay remarks: cells
- Assay type: functional, cell-based, Homo sapiens
- condition details: mkn-7
- Description: SANGER: Inhibition of human MKN7 cell growth in a cell viability assay.

| sequence | IC50 / µM |
| --- | --- |
| BLEOMYCIN | 66.5 |

----------
- System: EB2
- assay remarks: cells
- Type: functional, cell-based, Homo sapiens
- condition details: Homo sapiens, EB2
- Description: SANGER: Inhibition of human EB2 cell growth in a cell viability assay.
Counter-ions that a name gives are not always drawn.
IC50 by entry:

| compound | IC50 |
| --- | --- |
| C=C(c1ccc(C(=O)O)cc1)c1cc2c(cc1C)C(C)(C)CCC2(C)C | > 8 µM |
| COc1cc2ncn(-c3cc(OCc4ccccc4S(C)(=O)=O)c(C#N)s3)c2cc1OC [GSK-319347A] | > 5 µM |
| COC1=CC(c2cc3ccccc3[nH]2)=N/C1=C\c1[nH]c(C)cc1C [OBATOCLAX MESYLATE] | < 0.0625 µM |
| COc1cccc2c1C(=O)c1c(O)c3c(c(O)c1C2=O)C[C@@](O)(C(=O)CO)C[C@@H]3O[C@H]1C[C@H](N)[C@H](O)[C@H](C)O1 | 0.0337 µM |
| CC[C@H](CO)Nc1nc(NCc2ccccc2)c2ncn(C(C)C)c2n1 | > 16 µM |
| COc1cc(-c2nn([C@H]3CC[C@H](N4CCN(C(C)=O)CC4)CC3)c3ncnc(N)c23)ccc1NC(=O)c1cc2ccccc2n1C | > 5.12 µM |

----------
- System: K562
- assay remarks: cells
- Assay type: functional, cell-based, Homo sapiens
- condition details: Homo sapiens, K562
- Description: SANGER: Inhibition of human K-562 cell growth in a cell viability assay.
// values below are reported IC50
readout name: IC50

| compound smiles | test system | experimental result |
| --- | --- | --- |
| COc1cccc2c1C(=O)c1c(O)c3c(c(O)c1C2=O)C[C@@](O)(C(=O)CO)C[C@@H]3O[C@H]1C[C@H](N)[C@H](O)[C@H](C)O1 | K562 | 386 nM |
| CCN(CC)CCCCNc1ncc2cc(-c3cc(OC)cc(OC)c3)c(NC(=O)NC(C)(C)C)nc2n1 | K562 | > 2000 nM |
| C=C(c1ccc(C(=O)O)cc1)c1cc2c(cc1C)C(C)(C)CCC2(C)C | K562 | > 8000 nM |
| CC[C@H](CO)Nc1nc(NCc2ccccc2)c2ncn(C(C)C)c2n1 | K562 | > 16000 nM |
